Each entry below carries its reported residual activity.
- ASSAY SYSTEM: CAMK2D (human) (UniProt Q13557)
- Sequence (Q13557 whole entry, looked up): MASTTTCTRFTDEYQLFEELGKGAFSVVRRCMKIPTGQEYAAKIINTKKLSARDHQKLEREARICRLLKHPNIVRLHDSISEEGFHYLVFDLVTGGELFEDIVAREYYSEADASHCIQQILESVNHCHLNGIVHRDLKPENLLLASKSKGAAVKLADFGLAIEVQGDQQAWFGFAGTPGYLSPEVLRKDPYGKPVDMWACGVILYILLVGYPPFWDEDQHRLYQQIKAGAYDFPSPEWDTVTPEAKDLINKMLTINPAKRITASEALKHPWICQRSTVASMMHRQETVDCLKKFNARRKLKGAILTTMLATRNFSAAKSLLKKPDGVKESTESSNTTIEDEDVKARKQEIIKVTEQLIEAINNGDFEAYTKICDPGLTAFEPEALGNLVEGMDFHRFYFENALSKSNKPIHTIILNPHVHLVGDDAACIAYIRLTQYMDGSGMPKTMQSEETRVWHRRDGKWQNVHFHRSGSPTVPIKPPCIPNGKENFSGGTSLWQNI
- ASSAY NOTES: radiometric filter-binding kinase assay, Kinase HotSpot
- MEASUREMENT SETUP: compound 0.5 µM; ATP 10 µM
Expressed in %, but write only the number.

> print(dat)
                                   compound  value.measured
1  O=C1Nc2cc(Br)ccc2/C1=C1/Nc2ccccc2/C1=N\O              23
2  Nc1n[nH]c2nnc(-c3c(-c4ccccc4)nn4ccccc34)cc12            96.5
3           CCN1/C(=C/C(C)=O)Sc2ccc(OC)cc21            92.2
4  Nc1nc(Nc2ccc(S(N)(=O)=O)cc2)nn1C(=S)Nc1c(F)cccc1F            15.6
5  CS(=O)c1ccc(-c2nc(-c3ccc(F)cc3)c(-c3ccncc3)[nH]2)cc1 (stereo unspecified)             103

For CSc1nc(-c2ccc(F)cc2)c(-c2ccnc(NC(C)c3ccccc3)c2)[nH]1 (stereo unspecified) the compound record lists residual activity as 99.3

For CC(C)n1cnc2c(Nc3cccc(Cl)c3)nc(NCCO)nc21 the compound record lists residual activity as 84.2

For Nc1nc(Nc2ccc(S(N)(=O)=O)cc2)nn1C(=O)c1c(F)cccc1F the compound record lists residual activity as 94.6

For C#Cc1cccc(Nc2ncnc3cc(OCCOC)c(OCCOC)cc23)c1 the compound record lists residual activity as 95.1

For O=c1cc(-c2cccc3c2Sc2ccccc2S3)oc(N2CCOCC2)c1 the compound record lists residual activity as 104

For O=C1Cc2c([nH]c3ccc([N+](=O)[O-])cc23)-c2ccccc2N1 the compound record lists residual activity as 79.3

Reference for the values: the kinase profiling compilation of Christmann-Franck et al. (2016)
